Where do these numbers come from? They come from patent US20220177477A1.

Assay: Drug metabolism study in rats, oral administration
Conditions: rat, plasma, po, 5 mg/kg
# reported half-life; entries follow
endpoint: half-life

> print(dat)
                                 cpd.smiles  result
1  C[C@@H](Nc1ccn2ncc(-c3cn[nH]c3)c2n1)c1cc(F)ccc1OCC(F)(F)F     4 h
2  C[C@@H](Nc1ccn2ncc(-c3cn[nH]c3)c2n1)c1cc(F)ccc1OCC(F)F  4.44 h
3  C[C@@H](Nc1ccn2ncc(-c3cnn(CCO)c3)c2n1)c1cc(F)ccc1OCC(F)(F)F   3.2 h
4  C[C@@H](Nc1ccn2ncc(-c3cnn(C)c3)c2n1)c1cc(F)ccc1OCC(F)F  2.85 h
